Biological target: Aβ (1-40) (Homo sapiens)
Construct: Aβ (1-40) was purchased from Anaspec, Inc. (Fremont, Calif.) as lyophilized powder; purchased Anaspec, Inc. (Fremont, Calif.)
Assay: Photoinduced cross-linking (PICUP) of Aβ and peptides
Type: binding
Conditions: pre-aggregated Aβ, 10:1 molar excess of Aβ, Western blot 4G8
Where no end group is shown, it is not given here. [ ]: non-standard residue; d: D form.
MEASURED_PROPERTY: interaction with Aβ (shift in cross-linked Aβ size distribution)

>  <SUBSTANCE>
SKVVT^DPPRYTIAALLSPYSYSQ [CG3] (chain 1 SKVVT[dP]PRYTIAALLSPYSYSQ; chain 2 SKVVT[dP]PRYTIAALLSPYSYSQ; also: head-to-tail to a chain's N/C-terminus) [cyclic 22-mer of TTR residues 104-123 grafted onto DPro-Pro template]

>  <READING>
interact with Aβ

$$$$
>  <SUBSTANCE>
PRRYTIAALLSPYSWSDYKDDDDK [GF, linear peptide G16 with a C-terminal FLAG tag]

>  <READING>
interact with Aβ

$$$$
>  <SUBSTANCE>
PRRYTIAALLSPYSWS [G16, 16-mer linear peptide, TTR residues 102-117, Y116W, reference compound]

>  <READING>
interact with Aβ

$$$$

Cited source: patent US9809627B2
